Every entry's value here was drawn from patent US20250179047A1.

Study Target: BCLXL WT (Homo sapiens (Human), UniProt Q07817)
Sequence (Q07817 other isoform, or with tags, fused parts or gaps): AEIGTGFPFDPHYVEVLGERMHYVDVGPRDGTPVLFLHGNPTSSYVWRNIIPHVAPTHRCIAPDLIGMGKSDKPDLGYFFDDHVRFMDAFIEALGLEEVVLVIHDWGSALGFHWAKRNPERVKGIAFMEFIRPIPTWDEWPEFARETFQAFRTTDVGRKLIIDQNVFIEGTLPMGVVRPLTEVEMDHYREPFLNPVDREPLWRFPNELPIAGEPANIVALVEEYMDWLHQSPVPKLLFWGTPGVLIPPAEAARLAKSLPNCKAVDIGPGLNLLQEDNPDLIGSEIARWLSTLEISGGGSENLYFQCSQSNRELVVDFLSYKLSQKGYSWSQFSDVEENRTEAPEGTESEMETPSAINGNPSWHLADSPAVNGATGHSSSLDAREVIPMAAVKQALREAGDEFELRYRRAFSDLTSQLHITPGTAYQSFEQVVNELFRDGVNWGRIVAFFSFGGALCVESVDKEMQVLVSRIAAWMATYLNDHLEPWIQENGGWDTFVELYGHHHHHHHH
Protocol Description: TR-FRET competitive binding assay, BCLXL WT
Condition Info: ratio Ki BCLxL / Ki BCL2 WT
Property Measured: TR_FRET EKI BCLxL/WT selectivty ratio

As a guide, the following entries are already answered.
Task item: Give the measured TR_FRET EKI BCLxL/WT selectivty ratio of Cc1c(N(C(=O)c2cc(-c3cc4c(cc3C(=O)N3Cc5ccccc5C[C@H]3CN3CCC[C@H](C)C3)CN(C(=O)Cc3ccc(OCCN5CCOCC5)cc3)CC4)n(C)c2C)c2ccc(O)cc2)cc(C#N)n1C [Example 153] .
Reply: 41.6

Task item: Give the measured TR_FRET EKI BCLxL/WT selectivty ratio of Cc1c(N(C(=O)c2cc(-c3cc4c(cc3C(=O)N3Cc5ccccc5C[C@H]3CN3CCCCC3)CN(C(=O)Cc3ccc(OCCN(C)C5COC5)cc3)CC4)n(C)c2C)c2ccc(O)cc2)cc(C#N)n1C [Example 106] .
Reply: 36.0

P. Cc1c(N(C(=O)c2cc(-c3cc4c(cc3C(=O)N3Cc5ccccc5C[C@H]3CN3CCCCC3)CN(C(=O)Cc3ccc(OCCN(C)CCF)cc3F)CC4)n(C)c2C)c2ccc(O)cc2)cc(C#N)n1C [Example 134]
Q. Cc1c(N(C(=O)c2cc(-c3cc4c(cc3C(=O)N3Cc5ccccc5C[C@H]3C)CN(C(=O)c3ccccc3)CC4)n(C)c2C)c2ccc(O)cc2)cc(C#N)n1C [Example 25]
R. Cc1c(C(=O)N(c2ccc(O)cc2)c2cc(C#N)n(C(F)F)c2C)cc(-c2cc3c(cc2C(=O)N2Cc4ccccc4C[C@H]2CN2CCCCC2)CN(C(=O)Cc2ccc(OCCN4CCOCC4)cc2)CC3)n1C [Example 77]
Task item: Rank ascending by TR_FRET EKI BCLxL/WT selectivty ratio. Present the labels in the sequence the task asks for.
Reply: Q, P, R

* * *

System: BCL2 G101V
Protocol Description: TR-FRET competitive binding assay, BCL2 G101V
Set-up: species or system human
Condition Info: ratio Ki BCL2 G101V / Ki BCL2 WT
Property Measured: TR_FRET EKI G101V/WT selectivty ratio

P. Cc1nn(C)cc1N(C(=O)c1cc(-c2cc3c(cc2C(=O)N2Cc4ccccc4C[C@H]2C)CN(C(=O)Cc2ccc(OCCN4CCOCC4)cc2F)CC3)n(C)c1C)c1ccccc1
Q. Cc1c(N(C(=O)c2cc(-c3cc4c(cc3C(=O)N3Cc5ccccc5C[C@H]3C)CN(C(=O)Cc3ccc(OCCN5CCOCC5)cc3)CC4)n(C)c2C)c2ccccc2)cc(C#N)n1C
Task item: Hi! Which is lower in terms of TR_FRET EKI G101V/WT selectivty ratio, the first one P or the second one Q ? Field: selected label. Fill in the label of the entry you choose.
Reply: Q
(Q: 9.4, P: 78.9)

* * *

Study Target: BCL2 D111A (Homo sapiens, UniProt P10415, D111A)
Protocol Description: TR-FRET competitive binding assay, BCL2 D111A
Condition Info: Ki determined from IC50, read-out: TR_FRET EKI_Bcl2 D111A
pKi: −log10 of the molar value.
Property Measured: pKi

Task item: Give the measured pKi of Cc1c(N(C(=O)c2cc(-c3cc4c(cc3C(=O)N3Cc5ccccc5C[C@H]3CN3CCCCC3)CN(C(=O)Cc3ccc(OCCN(C)C5COC5)cc3F)CC4)n(C)c2C)c2ccc(O)cc2)cc(C#N)n1C .
Reply: 9.92

A. Cc1c(N(C(=O)c2cc(-c3cc4c(cc3C(=O)N3Cc5ccccc5C[C@H]3CN3CCCCC3)CN(C(=O)Cc3ccc(OCC(C)N5CCOCC5)cc3)CC4)n(C)c2C)c2ccc(O)cc2)cc(C#N)n1C (single isomer, unassigned)
B. COC[C@@H]1Cc2ccccc2CN1C(=O)c1cc2c(cc1-c1cc(C(=O)N(c3ccc(O)cc3)c3cc(C#N)n(C)c3C)c(C)n1C)CCN(C(=O)Cc1ccc(OCCC3CCOCC3)cc1F)C2
Task item: Hi! Which is lower in terms of pKi, the first one A or the second one B ? Field: selected label. Fill in the label of the entry you choose.
Reply: B
(B: 9.19, A: 9.89)
